# Test system: MYB
# Experiment description: HiBiT protein abundance assay, MYB (K562 HiBiT knock-in)
# Format: cell-based, human
# Condition context: HiBiT knock-in K562 cells, 24 hours, top dose 10 μM
pIC50: −log10 of the molar value.
Observed property: pIC50

# count of solved cases: 6
Compound	Value
Cn1cc2cc(-c3ccc4nc(N5CC[C@H](N[C@H]6C[C@H](F)C6)C5)ccc4n3)c(O)c(F)c2n1 (single isomer, unassigned)	> 7.00
Cc1nc2c(F)c(O)c(-c3ccc4nc(N5CCC(NC6(C)CC6)C5)ccc4n3)cc2o1 (centres unmarked) [Compound 325]	> 7.00
CCN1CCC(c2ccc3nc(-c4cc5cn(C)nc5cc4O)ccc3n2)CC1	6.00 to 7.00
Cc1cn2cc(-c3ccc4nc(C5CCNCC5)ccc4n3)c(O)c(C)c2n1	6.00 to 7.00
Cn1cc2cc(-c3ccc4nc(N5CCC56CCCNC6)ccc4n3)c(O)cc2n1 (centres unmarked)	5.00 to 6.00
CN[C@H]1CCN(c2cc3c(Cl)cc(-c4cc5cn(C)nc5c(C)c4O)nc3cc2C)C1	6.00 to 7.00

INPUT: # return recorded pIC50 for input CNC1CCN(c2ccc3nc(-c4cc5cn(C)nc5c(C)c4O)ncc3n2)C1 (centres unmarked)
OUTPUT: > 7.00

INPUT: Look up and state reported pIC50 for Cn1cc2cc(-c3ccc4nc(N5CC[C@@H](N[C@H]6C[C@H](F)C6)C5)ccc4n3)c(O)cc2n1
OUTPUT: > 7.00

INPUT: Determine from records and report pIC50 for Cc1c(O)c(-c2ncc3nc([C@@H]4CCNC4)ccc3n2)cc2cn(C)nc12 (single isomer, unassigned)
OUTPUT: 6.00 to 7.00

INPUT: Identify measured pIC50 corresponding to Cc1nc2c(C)c(O)c(-c3ccc4nc(N5CC[C@H](NC(C)C)C5)ncc4n3)cc2o1
OUTPUT: > 7.00

INPUT: Report pIC50, nothing else, for this compound: Cn1cc2cc(-c3ccc4cc(N5CCNCC5)cc(F)c4n3)cc(F)c2n1
OUTPUT: > 7.00

INPUT: Return reported pIC50. Input compound: CNC(=O)c1nc(-c2cc3cn(C)nc3c(C)c2O)nc2ccc(N3CCNCC3)cc12
OUTPUT: > 7.00

INPUT: Dear colleague, please send me the reported pIC50 for Cc1cn2nc(-c3ccc4nc(N5CCC(NC(C)(C)C)C5)ccc4n3)cc(C)c2n1 (centres unmarked) when you can.
OUTPUT: 6.00 to 7.00

INPUT: Given the compound Cc1nc2c(C)c(O)c(-c3ccc4nc(N5CC[C@H](NC(C)C)C5)ccc4n3)cc2o1 (single isomer, unassigned) , write its reported pIC50.
OUTPUT: > 7.00

INPUT: Look up pIC50 of Cc1c(O)c(-c2nc(C(N)=O)c3cc(N4C[C@H](C)N[C@@H](C)C4)ccc3n2)cc2cn(C)nc12 and report it.
OUTPUT: > 7.00

INPUT: Check the records and state pIC50 for Cn1cc2cc(-c3ccc4nc(N5CC[C@H](NCC6CC6)C5)ccc4n3)c(O)c(F)c2n1 (single isomer, unassigned)
OUTPUT: > 7.00

INPUT: Report pIC50 for CN[C@H]1CCN(c2ccc3nc(-c4cc(F)c5nc(C)cn5c4)ncc3n2)C1
OUTPUT: 6.00 to 7.00

INPUT: Please list pIC50 recorded for the compound Cc1nc2c(C)c(O)c(-c3ccc4nc(N5CC[C@@H](NC(C)C)C5)ccc4n3)cc2o1 (single isomer, unassigned)
OUTPUT: > 7.00

INPUT: Consider the compound CNC(=O)c1nc(-c2cc3cn(C)nc3cc2O)nc2ccc(N3C[C@@H](C)N[C@H](C)C3)cc12 (single isomer, unassigned) and give its recorded pIC50.
OUTPUT: > 7.00

INPUT: Look up pIC50 of Cc1nc2c(C)c(O)c(-c3ccc4nc(N5CC[C@@H](N[C@H]6C[C@H](F)C6)C5)ccc4n3)cc2o1 (single isomer, unassigned) and report it.
OUTPUT: > 7.00

INPUT: Report measured pIC50; entry is Cc1c(O)c(-c2ncc3cc(N4CCNCC4)ccc3n2)cc2cn(C)nc12
OUTPUT: > 7.00

INPUT: Respond only with pIC50 recorded for Cc1nc2cc(O)c(-c3ccc4nc(N5CC[C@H](N[C@H]6C[C@@H](F)C6)C5)ccc4n3)cc2o1 (stereo in doubt)
OUTPUT: 6.00 to 7.00

INPUT: Tell us which pIC50 value is on record for Cn1cc2cc(-c3ccc4nc(N5CCC(N)C5)ccc4n3)c(O)c(F)c2n1 (stereo in doubt) [Compound 363]
OUTPUT: > 7.00

INPUT: Give the reported pIC50 for this compound. Cc1c(O)c(-c2nc(C(=O)O)c3cc(N4CCNCC4)ccc3n2)cc2cn(C)nc12
OUTPUT: < 5.00

INPUT: Provide only the value of recorded pIC50 for Cn1cc2nc(-c3ccc4nc(C5CCNCC5)ccc4n3)c(F)cc2n1
OUTPUT: 5.00 to 6.00

INPUT: State its pIC50: CNC(=O)c1nc(-c2cc3cn(C)nc3c(F)c2O)nc2ccc(N3CCNC4(CC4)C3)cc12
OUTPUT: > 7.00

INPUT: For the compound Cn1cc2cc(-c3ncc4nc(C5CCNCC5)ccc4n3)c(O)cc2n1 , give its reported pIC50.
OUTPUT: 6.00 to 7.00

INPUT: Return value of pIC50 for input Cn1cc2cc(-c3ncc4cc(N5CCC(N6CCC6)CC5)ccc4n3)c(O)c(F)c2n1 , no commentary.
OUTPUT: 6.00 to 7.00

INPUT: Give recorded pIC50. Cn1cc2cc(-c3ccc4nc(C5CCNC6(CC6)C5)ncc4n3)c(O)cc2n1 (centres unmarked)
OUTPUT: 6.00 to 7.00
